test.name: Plasma pharmacokinetics of epirubicin and epirubicinol (HPLC, noncompartmental)
assay.conditions: human, plasma, intravenous, CL (total body clearance), Irinotecan → epirubicin (Course 2); mean ±s.d.
Protocol: Atropine was administered if diarrhoea, abdominal cramping or other symptoms of early cholinergic syndrome occurred within 1 h of receiving irinotecan. […] Samples were added to C8 solid-phase extraction tubes and extracts were dried on an evaporator. […] The fluorescence detector was set at excitation 480 nm and emission 560 nm. Pharmacokinetic parameters were determined by noncompartmental methods using WinNonlin (Version 3.0, Pharsight Corp., Mountain View, CA, USA). […]
readout: clearance (mL/min)
The response must be a number in mL/min with no trailing unit.

// returns reported clearance for input COc1cccc2c1C(=O)c1c(O)c3c(c(O)c1C2=O)C[C@@](O)(C(=O)CO)C[C@@H]3O[C@H]1C[C@H](N)[C@@H](O)[C@H](C)O1 [epirubicin]
2080
